MEASUREMENT NOTES: growth inhibition, single agents and combos, HTB85, cell-based, BGB or cisplatin IC20 combos, synergistic combos for chromothripsis tumors (AID 1671453);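 also: cells exposed for 96 hours before readout; 0% = vehicle DMSO and 100% = high DMSO killing control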
ASSAY CONDITIONS: HTB85 osteosarcoma cells, drug combinations, at 0.5 µM, stronger effect = higher value
READOUT KIND: inhibition (%)
Just the number in %, nothing appended.

Sample CN(C)c1ccc(C(=O)NCCCCCCC(=O)NO)cc1 ; inhibition observed: 28.6

Form field inhibition, entry O=C(CCCCCCNC(=O)c1cnc(N(c2ccccc2)c2ccccc2Cl)nc1)NO : -4.65

Sample O=C(O)[C@H](Cc1c[nH]c2ccccc12)N1C(=O)c2ccccc2C1=O ; inhibition observed: -21.8

Input CC(=O)Nc1nc(C)c(-c2ccc(Cl)c(S(=O)(=O)NCCO)c2)s1 . Output inhibition: 10.5

Notebook: Cc1ccc2nc(NCCN)c3ncc(C)n3c2c1 , inhibition read as 7.35

O=C(O)CO.[NH2-].[NH2-].[Pt+2] has a reported inhibition of 1.55

Documented inhibition of CN[C@@H]1CN(c2ccc3c(=O)c(C(=O)O)cn(-c4nccs4)c3n2)C[C@H]1OC : 51.4

For this compound ( CN(C)C/C=C/C(=O)Nc1ccc(C(=O)Nc2cccc(Nc3ncc(Cl)c(-c4c[nH]c5ccccc45)n3)c2)cc1 ), measured inhibition is 91.8

Lookup result for Nc1nc(OCc2cc(Br)cs2)c2[nH]cnc2n1 ; measured inhibition: -18.8

# inhibition of COc1cc(C=O)c([N+](=O)[O-])cc1OC = -19.8

Briefly, inhibition measured for CN(C)CCN1C(=O)c2cccc3cc(N)cc(c23)C1=O : -12.9
